The origin of these recorded values is patent US20140288077A1.

Items are presented alongside their recorded pIC50.
target: human PCNA recombinant protein (Homo sapiens, UniProt P12004); construct: The full length human PCNA; made in house; host or cells: Escherichia coli BL21(DE3); test: Fluorescent polarization assay: competition with 5-FAM-labeled PL peptide for PCNA; type: binding; conditions: Table 2; inhibition of FAM-PL peptide binding to PCNA; read-out: IC50
Sequence (P12004 whole entry): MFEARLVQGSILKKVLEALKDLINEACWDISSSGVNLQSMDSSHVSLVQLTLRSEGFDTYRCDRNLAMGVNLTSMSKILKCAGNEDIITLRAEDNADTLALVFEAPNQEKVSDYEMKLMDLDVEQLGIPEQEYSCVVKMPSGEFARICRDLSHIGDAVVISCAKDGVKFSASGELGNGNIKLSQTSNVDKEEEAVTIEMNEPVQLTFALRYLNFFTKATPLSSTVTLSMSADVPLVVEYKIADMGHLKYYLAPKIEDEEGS
Please note pIC50 is a logarithmic value: minus log10 of concentration in mol/L. Answer with that number alone.

{"Smiles Text": "O=C(Cc1cc(I)c(Oc2ccc(O)cc2)c(I)c1)N1CCOCC1", "pIC50": 5.20}

Task: Fill in: pIC50 of "CS(=O)(=O)NC(=O)Cc1cc(I)c(Oc2ccc(O)cc2)c(I)c1" is ___
Output: 5.04

Task: Give the measured pIC50 of "CNC(=O)CCc1cc(I)c(Oc2ccc(OC)cc2)c(I)c1" .
Output: 4.77

Task: Look up pIC50: "CCS(=O)(=O)N1CCN(C(=O)CCc2cc(I)c(Oc3ccc(O)cc3)c(I)c2)CC1"
Output: 5.57

Task: Request the reported pIC50 associated with "COc1ccc(Oc2c(I)cc(CCC(=O)N3CCCCC3)cc2I)cc1"
Output: 5.02
